# Test system: GRK1
# conditions-used: concentration: 1 μM,replicates: in singlicate; n = 1;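 note: KINOMEscan kinase panel screen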
endpoint: %Inh (%)
Write the answer as a number in %, unit excluded.

// worked examples, %Inh included
Challenge: Requested field: %Inh. Item: `FC(F)(F)c1cc(Br)cc(Nc2nccc(-c3cnn4ncccc34)n2)c1`
Response given: 7

Challenge: Requested field: %Inh. Item: `CCN1CCN(CCCC(=O)Nc2n[nH]c3nc(-c4ccc(O)cc4)c(Br)cc23)CC1`
Response given: 0

Okay, next one:
Challenge: Requested field: %Inh. Item: `CN(c1ccccc1CNc1nc(Nc2ccc3c(c2)CC(=O)N3)ncc1C(F)(F)F)S(C)(=O)=O`
Response given: 12

---

# System: PAK2
# conditions-used: concentration: 1 μM,replicates: in singlicate; n = 1
Listed molecules paired with reported %Inh
Lab note: write values as number then unit, every time.

Challenge: Requested field: %Inh. Item: `CC(C)S(=O)(=O)N1CCN(Cc2ccc3c(c2)nc(NC(=O)c2ccsc2)n3C[C@H](O)c2ccccc2)CC1`
Response given: 27%

New cases:
Challenge: Requested field: %Inh. Item: N#Cc1cccc(C(=O)NC2CCN(c3ccnc(Nc4ccc(F)cc4)n3)C2)c1 (stereo not drawn)
Response given: 4%

Challenge: Requested field: %Inh. Item: `Cc1ccc(CC(=O)N2CCc3cc(-c4cn(C)c5ncnc(N)c45)ccc32)cc1`
Response given: 0%

---

# Tested on: EPHA1
# conditions-used: concentration: 1 μM,replicates: in singlicate; n = 1
endpoint: %Inh (%)
Write the answer as a number in %, unit excluded.

Challenge: Requested field: %Inh. Item: `CSc1nccc(-c2c(-c3ccc(F)cc3)ncn2CCCN2CCOCC2)n1.Cl`
Response given: 0

Challenge: Requested field: %Inh. Item: `COc1cccc(OC)c1C(=O)Nc1cccc(-c2nn3ccccc3c2-c2ccnc(Nc3cccc(F)c3)n2)c1`
Response given: 4

Challenge: Requested field: %Inh. Item: `C[C@@H]1CNc2c(sc3ccc4nc(-c5ccc(O)cc5)ccc4c23)C(=O)N1`
Response given: 0

Okay, next one:
Challenge: Requested field: %Inh. Item: CS(=O)c1ccc(-c2coc3ccc(-c4n[nH]c(=O)o4)cc23)cc1 (stereo not shown)
Response given: 0

---

# Test system: ERK1
# Construct: gene MAPK3
# conditions-used: concentration: 1 μM,replicates: in singlicate; n = 1
endpoint: %Inh

Challenge: Requested field: %Inh. Item: `COc1cc2ncn(-c3cc(OCC4CCCCC4)c(C(N)=O)s3)c2cc1OC`
Response given: 6%

New cases:
Challenge: Requested field: %Inh. Item: `CS(=O)(=O)c1cccc(CNc2nc(Nc3ccc4c(c3)[C@@H]3C[C@@H]4CNC3=O)ncc2C(F)(F)F)c1`
Response given: 24%

Challenge: Requested field: %Inh. Item: `CC(=O)c1c(-c2ccncc2)[nH]c(-c2ccncc2)c1C`
Response given: 3%

Challenge: Requested field: %Inh. Item: `Cl.c1ccc(Oc2ccc(Nc3ccnc4cc(-c5ccc(CN6CCNCC6)o5)ccc34)cc2)nc1`
Response given: 0%

Challenge: Requested field: %Inh. Item: `Cl.Cl.NC[C@H](CC1CCCCC1)NC(=O)c1ccc(-c2ccnc3[nH]ccc23)s1`
Response given: 18%

Challenge: Requested field: %Inh. Item: `CN(c1ccc2c(c1)nc(NCc1ccc(F)cc1)n2C)c1ccnc(Nc2ccc(CS(C)(=O)=O)cc2)n1.Cl`
Response given: 3%

Challenge: Requested field: %Inh. Item: `O=C(Nc1n[nH]c2cc(-c3ccco3)ccc12)C1CC1`
Response given: 0%

Challenge: Requested field: %Inh. Item: COC(=O)c1cccc(NC(=O)NC2CCN(c3ccnc(Nc4cc(OC)c(OC)c(OC)c4)n3)C2)c1 (centres unmarked)
Response given: 0%

---

# Test system: GRK3
# Construct: gene ADRBK2
# conditions-used: concentration: 1 μM,replicates: in singlicate; n = 1
Listed molecules paired with reported %Inh
Write the answer as a number in %, unit excluded.

Challenge: Requested field: %Inh. Item: `Cc1n[nH]c2cc(Nc3ccnc(Nc4cccc(CN5CCOCC5)c4)n3)ccc12`
Response given: 24

New cases:
Challenge: Requested field: %Inh. Item: `Cc1ccc(Nc2ccnc(Nc3ccc4c(c3)CS(=O)(=O)C4)n2)cc1O.Cl`
Response given: 22

Challenge: Requested field: %Inh. Item: `O=C(Nc1cccc(Oc2ccc3nccn3n2)c1)Nc1cccc(C(F)(F)F)c1`
Response given: 0

Challenge: Requested field: %Inh. Item: N#Cc1cccc(C(=O)NC2CCN(c3ccnc(Nc4ccc(F)cc4)n3)C2)c1 (stereo not drawn)
Response given: 0

Challenge: Requested field: %Inh. Item: `COc1cc2c(Nc3ccc(NC(=O)c4ccccc4)cc3)ncnc2cc1OCCCN1CCOCC1`
Response given: 0

Challenge: Requested field: %Inh. Item: `CN(c1cccc(CNc2nc(Nc3ccc4c(c3)CC(=O)N4)ncc2C(F)(F)F)c1)S(C)(=O)=O`
Response given: 0

Challenge: Requested field: %Inh. Item: Cc1nnc(-c2ccc3occ(-c4ccc(S(C)=O)cc4)c3n2)o1 (stereo not drawn)
Response given: 0

Challenge: Requested field: %Inh. Item: `O=C(NOCC1CC1)c1cc(Br)c(F)c(F)c1Nc1ccc(I)cc1Cl`
Response given: 0

Challenge: Requested field: %Inh. Item: `Cc1cccc2c(-c3ccncc3)c(-c3ccc(F)cc3)nn12.Cl`
Response given: 21

---

# Test system: p38-alpha
# Construct: gene MAPK14
# conditions-used: concentration: 1 μM,replicates: in singlicate; n = 1
endpoint: %Inh (%)
Write the answer as a number in %, unit excluded.

Challenge: Requested field: %Inh. Item: `CCCC(=O)Nc1n[nH]c2ncccc12`
Response given: 0

Challenge: Requested field: %Inh. Item: CCNCC(Cc1ccccc1)NC(=O)c1cc(Br)c(-c2ccnc3[nH]ccc23)s1.Cl.Cl (centres unmarked)
Response given: 11

Challenge: Requested field: %Inh. Item: `CC(=O)c1c(-c2ccncc2)[nH]c(-c2ccncc2)c1C`
Response given: 34

Challenge: Requested field: %Inh. Item: `O=C(Nc1ccccc1)c1cccc(Oc2ccc3nccn3n2)c1`
Response given: 0

Challenge: Requested field: %Inh. Item: `Cc1cccc2c(-c3ccncc3)c(-c3ccc(F)cc3)nn12.Cl`
Response given: 98.3

---

# Test system: PIK3C2B
# conditions-used: concentration: 1 μM,replicates: in singlicate; n = 1
endpoint: %Inh (%)
Write the answer as a number in %, unit excluded.

// worked examples, %Inh included
Challenge: Requested field: %Inh. Item: N#Cc1cccc(C(=O)NC2CCN(c3ccnc(Nc4ccc(F)cc4)n3)C2)c1 (stereo not shown)
Response given: 0

Challenge: Requested field: %Inh. Item: `Cn1ccc2ncnc(Oc3ccc(NC(=O)Nc4ccnc(C(F)(F)F)c4)c(Cl)c3)c21`
Response given: 0

Challenge: Requested field: %Inh. Item: `CC(=O)c1c(-c2ccncc2)[nH]c(-c2ccncc2)c1C`
Response given: 0

Okay, next one:
Challenge: Requested field: %Inh. Item: `C[C@@H](Oc1cc(-n2cnc3ccc(-c4ccncc4)cc32)sc1C(N)=O)c1ccccc1Cl`
Response given: 88

---

# Tested on: DMPK
# conditions-used: concentration: 1 μM,replicates: in singlicate; n = 1
Listed compounds paired with reported %Inh
Write the answer as a number in %, unit excluded.

Challenge: Requested field: %Inh. Item: `COC(=O)Nc1nc2cc(Oc3ccc(NC(=O)Nc4cc(C(F)(F)F)ccc4Cl)cc3)ccc2[nH]1.Cl`
Response given: 0

New cases:
Challenge: Requested field: %Inh. Item: `Cc1n[nH]c2cc(Nc3ccnc(Nc4cccc(CN5CCOCC5)c4)n3)ccc12`
Response given: 0

Challenge: Requested field: %Inh. Item: `C[C@@H](Oc1cc(-n2cnc3ccc(-c4ccncc4)cc32)sc1C(N)=O)c1ccccc1Cl`
Response given: 47

Challenge: Requested field: %Inh. Item: `O=C(Nc1cccc(Oc2ccc3nccn3n2)c1)Nc1cccc(C(F)(F)F)c1`
Response given: 0

Challenge: Requested field: %Inh. Item: `CS(=O)(=O)c1cccc(CNc2nc(Nc3ccc4c(c3)[C@@H]3C[C@@H]4CNC3=O)ncc2C(F)(F)F)c1`
Response given: 0

Challenge: Requested field: %Inh. Item: `Cl.Nc1n[nH]c2cc(-c3ccccn3)ccc12`
Response given: 0

Challenge: Requested field: %Inh. Item: `COc1cc2c(Nc3ccc(NC(=O)c4ccccc4)cc3)ncnc2cc1OCCCN1CCOCC1`
Response given: 0

Challenge: Requested field: %Inh. Item: `CS(=O)(=O)Nc1ccc(-c2ccnc3[nH]ccc23)cc1`
Response given: 51

Challenge: Requested field: %Inh. Item: `O=C(Nc1ccc(Oc2ccc3nc(NC(=O)C4CC4)cn3n2)c(F)c1)c1cccn(-c2ccccc2)c1=O`
Response given: 0

Challenge: Requested field: %Inh. Item: `CNC(=O)c1ccccc1Nc1nc(Nc2cccc(CS(C)(=O)=O)c2)ncc1C.O=CO`
Response given: 0

Challenge: Requested field: %Inh. Item: `CCn1c(-c2nonc2N)nc2cncc(Br)c21`
Response given: 0

Challenge: Requested field: %Inh. Item: `O=c1[nH]cc(-c2ccc(O)cc2)c2sc(-c3ccncc3)cc12`
Response given: 78

Challenge: Requested field: %Inh. Item: `NC(=O)Nc1sc(-c2ccc(F)cc2)cc1C(N)=O`
Response given: 0

Challenge: Requested field: %Inh. Item: `Cc1ccc(Nc2ccnc(Nc3ccc4c(c3)CS(=O)(=O)C4)n2)cc1O.Cl`
Response given: 0

Challenge: Requested field: %Inh. Item: `CC(C)S(=O)(=O)N1CCN(Cc2ccc3c(c2)nc(NC(=O)c2ccsc2)n3C[C@H](O)c2ccccc2)CC1`
Response given: 0

// data source = paper PMC5540273
